test system: 885724-159-R-J1-PDC complex spheroid viability; assay: Anticancer human tumor 885724-159-R-J1-PDC patient-derived pancreatic adenocarcinoma cell line growth inhibition [GQUAD]; settings: second compound 0.1 µM; first compound 0.0316 µM; hits give low values;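 also: spheroids exposed to agents for seven days before readout; percent of vehicle control viability where 100% = DMSO wells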
Metric Name: viability, T/C (%)
Form entry: value (%) — number only.

Q: Annotate the molecule CC(C)n1c(=O)n(C)c2cnc3cc(F)c(-c4ccc(OCCCN5CCCCC5)nc4)cc3c21 + Cc1cnc(CNC(=O)c2c(=O)c3ccc(N4CCCN(C)CC4)nc3n3c2sc2ccccc23)cn1 with its measured viability, T/C.
Ans: 108

Q: Annotate the molecule Cn1ncnc1[C@H]1c2n[nH]c(=O)c3cc(F)cc(c23)N[C@@H]1c1ccc(F)cc1 + Cc1cnc(CNC(=O)c2c(=O)c3ccc(N4CCCN(C)CC4)nc3n3c2sc2ccccc23)cn1 with its measured viability, T/C.
Ans: 100

Q: Annotate the molecule CC1COCCN1c1cc(C2(O)CC3CCC(C2)O3)c2cnn(-c3ccn[nH]3)c2n1 (stereo not drawn) + CN(C)c1ccc(Nc2c3ccc(NC(=O)CCN4CCCC4)cc3nc3cc(NC(=O)CCN4CCCC4)ccc23)cc1 with its measured viability, T/C.
Ans: 95.4
